Apoptosis regulator Bcl-2 (Homo sapiens, UniProt P10415): recorded Ki for assorted compounds
Sequence (P10415 whole entry): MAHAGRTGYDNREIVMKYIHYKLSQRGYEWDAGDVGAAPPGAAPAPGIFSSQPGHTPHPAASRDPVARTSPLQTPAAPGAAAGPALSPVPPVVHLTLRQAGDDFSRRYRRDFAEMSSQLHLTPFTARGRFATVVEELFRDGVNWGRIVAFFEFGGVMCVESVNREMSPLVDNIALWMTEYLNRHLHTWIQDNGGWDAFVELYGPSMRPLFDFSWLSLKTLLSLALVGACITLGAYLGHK
MEASUREMENT_KIND: Ki

- O=C(O)[C@H](Cc1ccccc1)N1C(=O)N[C@@H](Cc2ccc(-c3ccc(Cl)cc3)cc2)C1=O: > 50 µM
- O=C(NS(=O)(=O)c1ccc(Cl)c([N+](=O)[O-])c1)[C@H](Cc1ccccc1)N1C(=O)N[C@@H](Cc2ccccc2)C1=O: > 50 µM
- O=C(Nc1ccc(O)cc1)[C@H](Cc1ccccc1)N1C(=O)N[C@@H](Cc2ccc(-c3ccc(Cl)cc3)cc2)C1=O: > 50 µM
- O=C(NS(=O)(=O)c1ccc(Cl)c([N+](=O)[O-])c1)[C@H](Cc1ccccc1)N1C(=O)N[C@@H](Cc2ccc(-c3ccc(Cl)cc3)cc2)C1=O: 3.7 µM
- O=C(O)[C@H](Cc1ccccc1)N1C(=O)N[C@@H](Cc2ccc(-c3ccnc(F)c3)cc2)C1=O: > 50 µM
- O=C(NS(=O)(=O)c1ccccc1)[C@H](Cc1ccccc1)N1C(=O)N[C@@H](Cc2ccc(-c3ccnc(F)c3)cc2)C1=O: > 50 µM
- Cc1ccc(S(=O)(=O)NC(=O)[C@H](Cc2ccccc2)N2C(=O)/C(=C/c3ccc(-c4ccccc4)cc3)SC2=S)cc1: 0.62 µM
